Origin of measurements: ChEMBL document CHEMBL3259709

# assay comment: Ratio of free drug level from brain to plasma concentration in rat at 0.05 mg/kg, iv after 3 mins
# Assay type: ADME, organism-based
# Set-up: dose 0.05 mg/kg, route intravenous
# assay context: read-out: BPR
reported endpoint: Kp uu at 0.05 h
Numbers only.

Task item: For the molecule "CN1CCC(c2cccc3cc(S(=O)(=O)c4ccccn4)cnc23)CC1" , give its measured Kp uu at 0.05 h value.
Reply: 0.21

====

# target under test: 5-hydroxytryptamine receptor 2A (Homo sapiens, UniProt P28223)
# Sequence (P28223 whole entry): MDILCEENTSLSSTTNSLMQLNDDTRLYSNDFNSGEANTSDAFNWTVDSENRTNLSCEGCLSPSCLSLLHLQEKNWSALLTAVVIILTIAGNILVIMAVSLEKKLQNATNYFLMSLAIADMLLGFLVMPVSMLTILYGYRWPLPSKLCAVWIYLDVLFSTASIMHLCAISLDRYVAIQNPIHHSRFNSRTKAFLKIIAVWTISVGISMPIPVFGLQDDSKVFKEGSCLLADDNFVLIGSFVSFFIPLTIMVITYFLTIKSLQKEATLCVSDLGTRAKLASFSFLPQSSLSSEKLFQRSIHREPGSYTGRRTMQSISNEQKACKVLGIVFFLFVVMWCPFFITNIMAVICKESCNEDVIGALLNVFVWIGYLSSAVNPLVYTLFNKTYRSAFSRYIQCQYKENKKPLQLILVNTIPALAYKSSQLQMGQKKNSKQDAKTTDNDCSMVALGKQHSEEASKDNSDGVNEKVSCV
reported endpoint: Ki (nM)
One number for each entry, in nM.

Task item: Fill in: Ki on 5-hydroxytryptamine receptor 2A (Homo sapiens, UniProt P28223), entry "CN1CCN(c2cccc3cc(S(=O)(=O)c4cccc(F)c4)cnc23)CC1"
Reply: 0.39
